These entries and their values trace back to paper PMC5540273.

- System: HUNK;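 note: KINOMEscan kinase panel screen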
- measurement setup: concentration: 1 μM, replicates: in singlicate; n = 1
parameter: %Inh (%)
Give your result in % as a bare value.

Task: Which %Inh reading was recorded for the compound N#Cc1ccc(Oc2ccc(Nc3ncnc4cc[nH]c34)cc2Cl)cc1 ?
Result: 1

Task: Next record, please: C[C@@H]1CCN(C(=O)CO)C[C@@H]1N(C)c1ncnc2[nH]ccc12
Result: 0

Task: Next record, please: C[C@H]1CC[C@@H](C(=O)Nc2ccccc2)CN1c1cc(-c2ccc3c(N)n[nH]c3c2)nc(N)n1 [GSK2283293]
Result: 0

Task: Next record, please: Cl.c1ccc(Cn2ncc3cc(Nc4ncnc5ccccc45)ccc32)cc1 [GW273749]
Result: 0

Task: Next record, please: COc1ccc(Nc2nccc(N3CCC(NC(=O)Nc4ccc5c(c4)OCO5)C3)n2)cc1 (centres unmarked) [GSK1379745]
Result: 11

Task: Next record, please: CN1c2ccc(-c3ccc(C(=O)NCCO)cc3)cc2-c2[nH]ncc2S1(=O)=O
Result: 0

Task: Next record, please: CC(C)N1CCC(n2cnc(-c3ccc(F)cc3)c2-c2ccnc(N)n2)CC1 [SB-223132]
Result: 0

Task: Next record, please: Cl.Cn1ccc(-c2cccc(Nc3ccnc4cc(-c5nccs5)ccc34)c2)n1 [GW525701]
Result: 22

Task: Next record, please: Cl.O=S(=O)(c1cccc(F)c1)c1ccc(Nc2ncnc3cc(Br)sc23)cc1Cl [GSK306886]
Result: 57

Task: Next record, please: COc1ccc(Nc2nccc(N3CCC(NC(=O)c4cccc(NC(C)=O)c4)C3)n2)cc1 (centres unmarked) [GSK1379732]
Result: 28

Task: Next record, please: COc1ccc(-c2oc3ncnc(N)c3c2-c2ccc(OC)cc2)cc1 [SB-589132]
Result: 8

Task: Next record, please: COc1ccc(NC(=O)Nc2ccc(C)c(-c3ccc(C(=O)Nc4ccncc4)cc3)c2)cc1 [GSK1398475]
Result: 7

Task: Next record, please: O=C(Nc1ccccc1)Nc1ccc(Oc2ccc3nccn3n2)cc1
Result: 9

Task: Next record, please: OCCOCCn1ccc2ncnc(Nc3ccc(Oc4cccc(Cl)c4)c(Cl)c3)c21
Result: 7

Task: Next record, please: Cn1cc(-c2ccc3c(c2)CCN3C(=O)Cc2cccc(C(F)(F)F)c2)c2c(N)ncnc21 [GSK2606414]
Result: 0

Task: Next record, please: O=C(CCO)NCCn1ccc2ncnc(Nc3ccc(Oc4cccc(C(F)(F)F)c4)c(Cl)c3)c21
Result: 0

Task: Next record, please: CSc1nn2c(=O)cc(N3CCOCC3)nc2n1Cc1cccc(Cl)c1Cl [GSK2347225]
Result: 25

Task: Next record, please: CS(=O)(=O)CCNCc1ccc(-c2ccc3ncnc(Nc4ccc(OCc5ccccc5)c(Cl)c4)c3c2)o1.Cl [GW574783]
Result: 14

Task: Next record, please: O=C(NCCCN1CCCC1=O)c1cnc(NCc2cc(Cl)ccc2Cl)nc1NC1CCNCC1
Result: 0

Task: Next record, please: CCc1nc(-c2cccc(C)c2)c(-c2ccnc(NC(=O)c3ccccc3)c2)s1
Result: 0

Task: Next record, please: Cn1ccc2ncnc(Oc3ccc(NC(=O)Nc4cccnc4)c(Cl)c3)c21
Result: 24

Task: Next record, please: CC(C)(C)c1ccc(-n2cnc3c(N)ncnc32)cc1 [SKF-97263]
Result: 14

Task: Next record, please: O=C(Nc1n[nH]c2nc(-c3ccco3)c(Br)cc12)c1ccc(CN2CCCC2)cc1.O=C(O)[C@H](O)[C@@H](O)C(=O)O [SB-742352]
Result: 0

Task: Next record, please: Nc1n[nH]c2nnc(-c3ccccc3)cc12 [SB-517389]
Result: 32

Task: Next record, please: Cc1ccc(O)cc1Nc1cc(C(F)(F)F)nc2ccc(-c3ccncc3)cc12 [GW630823]
Result: 3

Task: Next record, please: CN1CCC(n2cnc(-c3ccc(F)cc3)c2-c2ccnc(NC3CCNCC3)n2)CC1 [SB-229482]
Result: 0
